From: patent US9688662B2

Biological target: PERK (Homo sapiens)
Test: In-vitro PERK enzyme inhibition assay (LanthaScreen, KIN_PERK)
Assay type: biochemical
Parameters: GST (N); purchased Invitrogen PV5106
Conditions: recombinant GST-PERK, GFP-eIF2 alpha substrate, 5 μM ATP, 60 minutes; read-out: KIN_PERK pIC50 (converted)
For each record, check the reported IC50: if it is below 30 nM write yes, else write no.

> print(dat)
                      smiles.representation  class
1  COc1cc2ncnc(Nc3ccc4c(c3)CCN4C(=O)Cc3cc(F)ccc3F)c2cc1OC    yes
2  COc1cc2ncnc(Nc3ccc4c(c3)CCN4C(=O)Cc3ccnn3C)c2cc1OC     no
3  O=C(Cc1cc(F)ccc1F)N1CCc2cc(Nc3ncnc4cc5c(cc34)OCO5)ccc21     no

Hello, I'm reviewing records and need to know if IC50 of COc1cc2ncnc(Nc3cnc4c(c3)CCN4C(=O)Cc3cc(F)cc(C(F)(F)F)c3)c2cc1OC is below 30 nM. Could you check?
no

Hello, I'm reviewing records and need to know if IC50 of COc1cc2ncnc(Nc3ccc4c(c3F)CCN4C(=O)Cc3cc(F)ccc3F)c2cc1OC is below 30 nM. Could you check?
yes

Hello, I'm reviewing records and need to know if IC50 of COc1cc2ncnc(Nc3ccc4c(c3)CCN4C(=O)Cc3c(-c4ccccc4)cnn3C)c2cc1OC is below 30 nM. Could you check?
no

Hello, I'm reviewing records and need to know if IC50 of COc1cc2ncnc(Nc3ccc4c(c3)CCN4C(=O)Cn3nc(C)c4ccccc43)c2cc1OC is below 30 nM. Could you check?
yes

Hello, I'm reviewing records and need to know if IC50 of COc1cc2ncnc(Nc3ccc4c(c3)CCN4C(=O)Cc3c(C)nc4ccccn34)c2cc1OC is below 30 nM. Could you check?
yes

Hello, I'm reviewing records and need to know if IC50 of COc1cc2ncnc(Nc3ccc4c(c3)CCN4C(=O)Cc3c[nH]c4ncccc34)c2cc1OC is below 30 nM. Could you check?
no

Hello, I'm reviewing records and need to know if IC50 of COc1cc2ncnc(Nc3ccc4c(c3)CCN4C(=O)Cc3c(Br)cnn3C)c2cc1OC is below 30 nM. Could you check?
yes

###

Target: PERK (Homo sapiens, UniProt Q9NZJ5)
Sequence (Q9NZJ5 30-1116): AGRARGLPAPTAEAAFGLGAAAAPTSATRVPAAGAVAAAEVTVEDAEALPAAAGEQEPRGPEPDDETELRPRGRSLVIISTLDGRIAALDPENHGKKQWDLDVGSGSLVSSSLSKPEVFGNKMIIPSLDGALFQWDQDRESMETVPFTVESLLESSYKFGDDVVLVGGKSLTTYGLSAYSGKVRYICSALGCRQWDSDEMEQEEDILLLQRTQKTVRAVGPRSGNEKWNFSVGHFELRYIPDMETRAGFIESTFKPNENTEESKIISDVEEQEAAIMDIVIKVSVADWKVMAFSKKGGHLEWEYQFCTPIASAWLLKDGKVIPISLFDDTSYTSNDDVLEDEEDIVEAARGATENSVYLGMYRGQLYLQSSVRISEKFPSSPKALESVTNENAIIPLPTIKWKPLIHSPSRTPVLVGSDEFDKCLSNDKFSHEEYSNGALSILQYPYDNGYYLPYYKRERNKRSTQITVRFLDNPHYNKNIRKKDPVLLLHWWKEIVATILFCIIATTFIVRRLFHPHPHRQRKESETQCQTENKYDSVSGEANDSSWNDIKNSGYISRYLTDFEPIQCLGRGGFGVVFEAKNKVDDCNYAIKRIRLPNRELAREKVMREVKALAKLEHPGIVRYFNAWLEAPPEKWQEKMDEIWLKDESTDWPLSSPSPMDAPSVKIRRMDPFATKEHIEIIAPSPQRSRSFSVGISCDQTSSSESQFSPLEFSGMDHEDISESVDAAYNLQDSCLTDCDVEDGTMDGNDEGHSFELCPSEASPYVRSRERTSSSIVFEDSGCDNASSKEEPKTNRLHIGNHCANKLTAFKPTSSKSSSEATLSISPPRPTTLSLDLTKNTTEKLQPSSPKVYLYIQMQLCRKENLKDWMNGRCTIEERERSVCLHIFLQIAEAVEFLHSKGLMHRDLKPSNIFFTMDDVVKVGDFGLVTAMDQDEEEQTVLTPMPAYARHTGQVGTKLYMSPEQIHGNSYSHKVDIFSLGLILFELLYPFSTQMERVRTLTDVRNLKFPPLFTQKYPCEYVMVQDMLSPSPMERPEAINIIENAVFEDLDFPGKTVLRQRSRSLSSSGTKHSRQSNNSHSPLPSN
Experiment: In-vitro PERK enzyme inhibition assay (LanthaScreen, KIN_PERK)
Type: biochemical
Design: GST (N); purchased Invitrogen PV5106
Details: recombinant GST-PERK, GFP-eIF2 alpha substrate, 5 μM ATP, 60 minutes; read-out: KIN_PERK pIC50 (converted)
Assay readout: IC50 (nM)
Form entry: value (nM) — number only.

> print(dat)
                                   molecule  numeric.result
1  COc1cc2ncnc(Nc3ccc4c(c3)CCN4C(=O)COc3ccccc3C(C)=O)c2cc1OC [Compound 25]            79.4

Using PERK (Homo sapiens, UniProt Q9NZJ5) as the test system, report measured IC50 of COc1cc2ncnc(Nc3ccc4c(c3)CCN4C(=O)Cc3ccsc3)c2cc1OC [Compound 22] .
63.1

Using PERK (Homo sapiens, UniProt Q9NZJ5) as the test system, report measured IC50 of COc1cc2ncnc(Nc3ccc4c(c3)CCN4C(=O)Cc3c(-c4ccccc4)[nH]c4ccccc34)c2cc1OC [Compound 33] .
6310

Using PERK (Homo sapiens, UniProt Q9NZJ5) as the test system, report measured IC50 of COc1cc2ncnc(Nc3ccc4c(c3)CCN4C(=O)Cn3c(=O)n(C)c4ccccc43)c2cc1OC [Compound 29] .
50.1

Using PERK (Homo sapiens, UniProt Q9NZJ5) as the test system, report measured IC50 of COc1cc2ncnc(Nc3ccc4c(c3)CCN4C(=O)Cc3c(-c4cccs4)cnn3C)c2cc1OC [Compound 46] .
398

Using PERK (Homo sapiens, UniProt Q9NZJ5) as the test system, report measured IC50 of COc1ccc2c(Nc3ccc4c(c3)CCN4C(=O)Cc3cc(F)cc(C(F)(F)F)c3)ncnc2c1 [Compound 45] .
39.8

Using PERK (Homo sapiens, UniProt Q9NZJ5) as the test system, report measured IC50 of COc1cc2ncnc(Nc3ccc4c(c3)CCN4C(=O)Cn3ncc4ccccc43)c2cc1OC [Compound 24] .
79.4

Using PERK (Homo sapiens, UniProt Q9NZJ5) as the test system, report measured IC50 of COc1cc2ncnc(Nc3ccc4c(c3)CCN4C(=O)Cc3c(-c4cnoc4)cnn3C)c2cc1OC [Compound 50] .
79.4

###

Parameter KIN_PERK pIC50: see the listing below.
Target: PERK (Homo sapiens, UniProt Q9NZJ5)
Assay: In-vitro PERK enzyme inhibition assay (LanthaScreen, KIN_PERK)
Format: biochemical
Design: GST (N); purchased Invitrogen PV5106
Details: recombinant GST-PERK, GFP-eIF2 alpha substrate, 5 μM ATP, 60 minutes
A bare number is all that is needed in reply.

> print(dat)
                      smiles.representation  numeric.result
1  COc1cc2ncnc(Nc3ccc4c(c3)CCN4C(=O)Cc3ccn(C)n3)c2cc1OC             6.6
2  COc1cc2ncnc(Nc3ccc4c(c3)CCN4C(=O)Cn3ccc4ccccc43)c2cc1OC             8.2
3  COc1cc2ncnc(Nc3ccc4c(c3)CCN4C(=O)Cc3c(C)[nH]c4c(F)cccc34)c2cc1OC             8.8
4  COc1cc2ncnc(Nc3ccc4c(c3)CCN4C(=O)Cc3coc4ccccc34)c2cc1OC             8.0
5  COc1cc2ncnc(Nc3ccc4c(c3F)CCN4C(=O)Cc3c(C)[nH]c4ccccc34)c2cc1OC             9.0

# evaluate next
Give KIN_PERK pIC50 for COc1cc2ncnc(Nc3ccc4c(c3)CCN4C(=O)Cn3c(C)cc4ccc(F)cc43)c2cc1OC
8.5

###

Target: PERK (Homo sapiens, UniProt Q9NZJ5)
Sequence (Q9NZJ5 30-1116): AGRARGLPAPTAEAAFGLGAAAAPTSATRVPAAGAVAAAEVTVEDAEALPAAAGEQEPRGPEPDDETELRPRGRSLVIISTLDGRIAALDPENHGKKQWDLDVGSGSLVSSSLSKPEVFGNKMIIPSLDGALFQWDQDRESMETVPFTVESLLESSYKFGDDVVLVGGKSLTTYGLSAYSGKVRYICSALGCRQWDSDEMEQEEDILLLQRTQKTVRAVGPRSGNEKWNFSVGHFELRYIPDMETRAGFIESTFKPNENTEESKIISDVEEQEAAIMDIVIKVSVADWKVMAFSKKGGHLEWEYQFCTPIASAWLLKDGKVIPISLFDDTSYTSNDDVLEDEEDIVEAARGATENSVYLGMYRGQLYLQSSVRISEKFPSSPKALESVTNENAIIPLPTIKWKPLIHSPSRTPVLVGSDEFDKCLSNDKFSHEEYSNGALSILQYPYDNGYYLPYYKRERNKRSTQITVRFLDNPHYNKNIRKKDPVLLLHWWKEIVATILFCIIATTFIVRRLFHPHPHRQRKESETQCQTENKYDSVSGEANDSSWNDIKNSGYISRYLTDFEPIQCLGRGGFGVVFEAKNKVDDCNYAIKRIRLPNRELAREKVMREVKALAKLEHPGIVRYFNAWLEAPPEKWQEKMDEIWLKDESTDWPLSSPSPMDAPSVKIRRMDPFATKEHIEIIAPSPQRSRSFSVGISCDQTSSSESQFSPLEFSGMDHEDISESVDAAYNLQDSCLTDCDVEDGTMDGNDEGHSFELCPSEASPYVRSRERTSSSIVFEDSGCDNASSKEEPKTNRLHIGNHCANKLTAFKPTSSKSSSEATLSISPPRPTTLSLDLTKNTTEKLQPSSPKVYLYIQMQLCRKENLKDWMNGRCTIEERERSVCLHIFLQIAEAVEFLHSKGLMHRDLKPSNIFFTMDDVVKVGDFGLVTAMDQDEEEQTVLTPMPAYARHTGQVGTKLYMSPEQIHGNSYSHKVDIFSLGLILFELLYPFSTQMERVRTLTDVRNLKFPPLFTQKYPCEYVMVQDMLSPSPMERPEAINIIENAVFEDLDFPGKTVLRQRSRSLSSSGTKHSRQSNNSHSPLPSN
Experiment: Cell-based PERK inhibition assay (TR-FRET, phosphorylation of GFP-eIF2 alpha in HEK293 cells, tunicamycin)
Conditions: HEK293 (LanthaScreen eIF2α GripTite) cells, compounds 60 min, tunicamycin 2 microg/ml 120 min; read-out: P-eIF2alpha_Lantha_cell pIC50 (converted)
Assay readout: IC50 (nM)
Form entry: value (nM) — number only.

Solved cases (3 shown):
> print(dat)
                      smiles.representation  assay.readout  numeric.result
1  COc1cc2ncnc(Nc3ccc4c(c3)CCN4C(=O)Cc3ccnn3C)c2cc1OC           IC50            6310
2  COc1cc2ncnc(Nc3ccc4c(c3)CCN4C(=O)Cc3c[nH]c4ncccc34)c2cc1OC           IC50            3980
3  COc1cc2ncnc(Nc3ccc4c(c3)CCN4C(=O)Cc3cccc(C)n3)c2cc1OC           IC50             794

# evaluate next
Give IC50 for COc1cc2ncnc(Nc3ccc4c(c3)CCN4C(=O)Cc3c(Br)cnn3C)c2cc1OC
251
